assay-procedure: Inhibition of RSV RNA polymerase assessed as RNA products using […] template by SPA primer extension enzymatic assay
Parameters: species or system Respiratory syncytial virus
pIC50: −log10 of the molar value.
Reported values of pIC50 for individual entries
value-type: pIC50

smiles-structure | readout-number
COc1cc(C(=O)NC[C@](O)(c2cc3c(c(-c4ccc(F)cc4)n2)OC[C@]3(C)NC(C)=O)C(F)(F)F)ccc1OC[C@@H](C)O | 7.64
COc1cc(C(=O)NC[C@](O)(c2cc3c(c(-c4ccc(F)cc4)n2)OC[C@]3(C)NC(C)=O)C(F)(F)F)cc2cccnc12 | 8.37
COc1nc2c(OC)cc(C(=O)NC[C@](O)(c3cc(C(C)(C)O)c(F)c(-c4ccc(F)cc4)n3)C(F)(F)F)cc2cc1C | 8.82
COc1cc(C(=O)NC[C@](O)(c2cc3c(c(-c4ccc(F)cc4)n2)OC[C@]3(C)NS(C)(=O)=O)C(F)(F)F)cc2cccnc12 | 9.15
COc1cc(C(=O)NC[C@](O)(c2cc3c(c(-c4ccc(F)cc4)n2)OC[C@]3(C)N)C(F)(F)F)ccc1OC[C@@H](C)O | 8.29
COc1cc(C(=O)NC[C@](O)(c2cc(C(C)(C)O)c(F)c(-c3ccc(F)cc3)n2)C(F)(F)F)cc2cc(C)cnc12 | 9.38
COc1cc(C(=O)NC[C@](O)(c2cc(C(C)(C)O)c(F)c(-c3ccc(F)cc3)n2)C(F)(F)F)cc2cc(C)c(F)nc12 | 8.96
